Target: UniProt:P25099
Experiment: Displacement of [3H]CCPA from adenosine A1 receptor of rat cortical membranes
Assay type: cell membranes, Membrane
measured-endpoint: Ki (µM)
One number for each entry, in µM.

Request: Ki lookup needed for CSC[C@H]1O[C@@H](n2cnc3c(N)ncnc32)[C@H](O)[C@@H]1O , thanks.
Result: 0.15

* * *

Target: UniProt P30543
Experiment: Displacement of [3H]-MSX-2 from Adenosine A2A receptor of rat striatal membranes
Type: cell membranes, Membrane
Assign Ki to each entry below.
One number for each entry, in µM.

CO/C(=C\c1ccc(O)cc1)C(=O)O[C@@H]1[C@H](OC(=O)/C=C/c2c[nH]cn2)[C@@H](CSC)O[C@H]1n1cnc2c(N)ncnc21: 17.1

Now consider the entry below.
Request: Ki lookup needed for CSC[C@H]1O[C@@H](n2cnc3c(N)ncnc32)[C@H](O)[C@@H]1O [METHYLTHIOADENOSINE] , thanks.
Result: 1.13

* * *

Biological target: Adenosine receptor A2a (Rattus norvegicus)
Sequence (P30543 whole entry): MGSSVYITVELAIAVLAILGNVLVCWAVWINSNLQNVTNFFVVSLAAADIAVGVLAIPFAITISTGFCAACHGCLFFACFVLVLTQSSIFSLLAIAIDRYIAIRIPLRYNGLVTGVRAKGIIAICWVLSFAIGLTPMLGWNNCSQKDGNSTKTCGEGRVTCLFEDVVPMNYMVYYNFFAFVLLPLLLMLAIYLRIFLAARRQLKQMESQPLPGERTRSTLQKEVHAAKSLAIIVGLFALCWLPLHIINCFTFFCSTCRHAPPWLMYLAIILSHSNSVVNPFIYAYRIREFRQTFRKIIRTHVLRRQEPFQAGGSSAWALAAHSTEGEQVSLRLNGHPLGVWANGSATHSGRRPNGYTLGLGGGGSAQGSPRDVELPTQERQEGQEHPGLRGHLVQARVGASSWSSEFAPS
Test: Displacement of [3H]NECA from Adenosine A2A receptor of rat striatal membranes
Format: cell membranes, Membrane
measured-endpoint: pKi
Numbers only, as −log10 of the molar value.

Request: Tell me reported pKi for CSC[C@H]1O[C@@H](n2cnc3c(N)ncnc32)[C@H](O)[C@@H]1O , tested with Adenosine receptor A2a (Rattus norvegicus).
Result: 5.93

* * *

Molecular target: Adenosine receptor A1 (Rattus norvegicus)
Assay: Displacement of [3H]DPCPX from adenosine A1 receptor of rat cortical membranes
Assay type: cell membranes, Membrane
measured-endpoint: pKi
Give bare numbers, as −log10 of the molar value.

Request: pKi lookup needed for CSC[C@H]1O[C@@H](n2cnc3c(N)ncnc32)[C@H](O)[C@@H]1O [METHYLTHIOADENOSINE] , thanks.
Result: 6.68

* * *

Biological target: Adenosine receptor A1 (Rattus norvegicus, UniProt P25099)
Sequence (P25099 whole entry): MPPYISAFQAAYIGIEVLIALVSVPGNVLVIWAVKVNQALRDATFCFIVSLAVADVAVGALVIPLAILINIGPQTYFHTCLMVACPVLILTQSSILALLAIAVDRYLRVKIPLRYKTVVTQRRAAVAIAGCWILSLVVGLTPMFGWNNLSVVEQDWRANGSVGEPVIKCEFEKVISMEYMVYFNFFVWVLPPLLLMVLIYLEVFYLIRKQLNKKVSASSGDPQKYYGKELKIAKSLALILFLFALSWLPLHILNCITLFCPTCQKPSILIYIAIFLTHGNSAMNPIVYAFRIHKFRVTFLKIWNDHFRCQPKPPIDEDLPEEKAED
Assay: Displacement of [3H]CCPA from Adenosine A1 receptor of rat cortical membranes
Format: cell membranes, Membrane
measured-endpoint: Ki (µM)
Numbers only, in µM.

Request: Ki lookup needed for CO/C(=C\c1ccc(O)cc1)C(=O)O[C@@H]1[C@H](OC(=O)/C=C/c2c[nH]cn2)[C@@H](CSC)O[C@H]1n1cnc2c(N)ncnc21 , thanks.
Result: 3.26
